# inhibition at 10 µM annotations
TARGET DESC: AKT1 (Homo sapiens)
Construct: purchased Kinase Logistics, Meyn, Germany #Aps 01-101
Sequence (P31749 whole entry): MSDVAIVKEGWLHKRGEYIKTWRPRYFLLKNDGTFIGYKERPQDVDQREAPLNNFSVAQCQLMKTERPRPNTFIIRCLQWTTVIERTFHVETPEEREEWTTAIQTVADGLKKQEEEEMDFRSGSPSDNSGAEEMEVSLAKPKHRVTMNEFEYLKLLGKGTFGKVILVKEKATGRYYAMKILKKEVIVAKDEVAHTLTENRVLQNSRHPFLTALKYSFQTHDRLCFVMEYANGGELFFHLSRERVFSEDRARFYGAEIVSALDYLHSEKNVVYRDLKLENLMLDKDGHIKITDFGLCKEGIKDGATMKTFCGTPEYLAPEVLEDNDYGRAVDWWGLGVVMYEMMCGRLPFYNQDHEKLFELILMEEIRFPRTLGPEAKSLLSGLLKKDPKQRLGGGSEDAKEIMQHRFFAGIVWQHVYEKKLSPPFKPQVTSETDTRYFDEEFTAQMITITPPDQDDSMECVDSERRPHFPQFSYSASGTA
EXPERIMENT SUMMARY: AKT1 enzymatic inhibition assay
Format: biochemical
TEST CONDITIONS: 10 μM compound; read-out: %inh (percentage of inhibition of AKT1 activity)
Reply with just the number (in %).

SMILES STRUCTURE | inhibition at 10 µM, %
O=c1[nH]c(-c2ccc(O)c(O)c2)nc2sc3c(c12)CCC3 | 78

inhibition at 10 µM of NC(=O)c1c(NC(=O)c2ccc(O)c(O)c2)sc2c1CCCCC2 on AKT1 (Homo sapiens)?
94

Also check NC(=O)c1c(NC(=O)c2ccc(F)cc2F)sc2c1CCCCC2
56

Same question, O=c1[nH]c(-c2ccc(O)c(O)c2)nc2sc3c(c12)CCCC3 this time
87

Subsequent entry: Cc1cc(-c2ccccc2)nc2nc(NC(=O)c3ccc(O)c(O)c3)nn12
95
